systemName: T1, COVID-19 nucleocapsid protein (N-protein) (severe acute respiratory syndrome …, UniProt P0DTC9 1-419)
T1 construct: also called nucleocapsid protein (N-protein) of severe acute respiratory syndrome coronavirus 2 (SARS-CoV-2)
test: bio-layer interferometry (BLI)
pKd: −log10 of the molar value.
Classification field: true (1) = pKd at or over 6; false (0) = pKd under 6.

Does the binder ACSTDVCKLTGIAIPCA (N-terminal acetyl (Ac); Ci, Cii and Ciii cysteines covalently bound to TATA scaffold) [BCY20265] have recorded pKd that is 6 or more?
true (1)

Exam item: decide whether the reported pKd for ACLEAGQRCNWTRVCA (Ci, Cii and Ciii cysteines covalently bound to TATA scaffold) [BCY17649] is at least 6.
true (1)

Tell me whether pKd is at least 6 here: QYESCTTDFCNNRYVVNRCA (Ci, Cii and Ciii cysteines covalently bound to TBMT scaffold) [BCY18975]
true (1)

Please indicate if the recorded pKd for ACQYTFCENRYKICA (Ci, Cii and Ciii cysteines covalently bound to TATA scaffold) [BCY16564] meets or exceeds 6.
false (0)

Can ACHTPDWSDFCAGRYCA (Ci, Cii and Ciii cysteines covalently bound to TBCU scaffold) [BCY16581] be said to have pKd at or above 6?
false (0)

Is the recorded value of pKd equal to or greater than 6 for this binder? ACVHDVCALTGIHIPCA (Ci, Cii and Ciii cysteines covalently bound to TATA scaffold) [BCY19453]
false (0)

Could you verify whether the entry ACTTDFCNNRYVVNRCDDYH (Ci, Cii and Ciii cysteines covalently bound to TBMT scaffold) [BCY18972] shows pKd of no less than 6?
true (1)

# check: pKd of KTEYCETDFCNNRYVVNRCA (Ci, Cii and Ciii cysteines covalently bound to TBMT scaffold) [BCY18988] is greater than or equal to 6
true (1)

Identify whether the reported pKd of the following binder is 6 or greater: ACTHDVCVLTGISIPCA (Ci, Cii and Ciii cysteines covalently bound to TATA scaffold) [BCY19564]
false (0)

Is reported pKd greater than or equal to 6 here: ACLPLGARCQWSRTCA (Ci, Cii and Ciii cysteines covalently bound to TATA scaffold) [BCY17647]
true (1)

Identify whether the reported pKd of the following binder is 6 or greater: ACKTYCFMENRYSLSCA (Ci, Cii and Ciii cysteines covalently bound to TBMT scaffold) [BCY16563]
false (0)

Is reported pKd greater than or equal to 6 here: ACDGNFCDNRYIVNTCA (Ci, Cii and Ciii cysteines covalently bound to TBMT scaffold) [BCY17626]
true (1)

Threshold query (pKd >= 6) on ACSRANNYCDWWKCA (Ci, Cii and Ciii cysteines covalently bound to TBCU scaffold) [BCY16578]
false (0)

Is reported pKd greater than or equal to 6 here: EKQYCTTDFCNNRYVVNRCA (Ci, Cii and Ciii cysteines covalently bound to TBMT scaffold) [BCY18977]
true (1)

Hello, I need to know if ACTTDFCNSRYIVNTCA (Ci, Cii and Ciii cysteines covalently bound to TBMT scaffold) [BCY16570] has measured pKd not below 6. Thanks!
true (1)

Hello, I need to know if ACTTDFCNNRYVVNRCA (Ci, Cii and Ciii cysteines covalently bound to TBMT scaffold) [BCY17628] has measured pKd not below 6. Thanks!
true (1)
